- measured.target: T1, DriD WT (Caulobacter crescentus, UniProt Q9A999 5-331)
- T1 sequence: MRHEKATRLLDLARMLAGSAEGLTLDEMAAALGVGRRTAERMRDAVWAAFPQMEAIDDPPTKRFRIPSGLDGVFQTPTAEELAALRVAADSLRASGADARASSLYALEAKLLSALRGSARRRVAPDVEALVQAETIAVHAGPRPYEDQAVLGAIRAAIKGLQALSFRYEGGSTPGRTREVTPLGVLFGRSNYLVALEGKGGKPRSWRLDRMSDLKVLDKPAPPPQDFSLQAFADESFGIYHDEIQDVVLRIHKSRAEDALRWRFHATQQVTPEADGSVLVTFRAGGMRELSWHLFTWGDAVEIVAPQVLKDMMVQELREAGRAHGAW
- experimental.protocol: fluorescence polarization
recorded.endpoint: Kd (nM)
Please state the figure in nM; there is no need to write the unit.

Example results:
C1/G15 to T/A (dsDNA) DNA 1: ATATGACAGTTACTGTCATAT DNA 2: ATATGACAGTAACTGTCATAT :: 6.9
driD promoter 21 bp site (FP) (dsDNA) DNA 1: ATACGACAGTTACTGTCGTAT DNA 2: ATACGACAGTAACTGTCGTAT :: 1.6
G2/C14 to A/T (dsDNA) DNA 1: ATACAATAGTTACTATTGTAT DNA 2: ATACAATAGTAACTATTGTAT :: 512
position 3/13 mutant (T3/A13 to C/G in text) (dsDNA) DNA 1: ATACGGCAGTTACTGCCGTAT DNA 2: ATACGGCAGTAACTGCCGTAT :: 7.1

### Prompt What does the data say about its Kd? Entry: C4/G12 to T/A (dsDNA) DNA 1: ATACGATAGTTACTATCGTAT DNA 2: ATACGATAGTAACTATCGTAT
### Response 962
